Assay: chemical genetic growth profiling, strain panel (AID 1159580);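 also: tested at 20 µM; growth read once vehicle control cultures reached saturation at 30 °C; lower values mean less growth of the strain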
Conditions: S. cerevisiae deletion strains, growth OD, locus YDR318W, strain mcm21, stronger effect = lower value
Among all 5,500 compounds or so, about 2,000 (36%) were called active. Not shown: some 18% with an inconclusive outcome. The list shows a part of the results.
Response field label takes condition met when normalized growth is strictly below 1 and condition not met in all other cases.

[[record]]
compound = "CC(C)C(C)/C=C/C(C)C1CCC2C3=CC=C4CC(O)CCC4(C)C3CCC21C (configuration not stated)"
class = "condition met"


normalized growth under 1? Item: C=C1CCC2C(CC2(C)C)C(=C)CC/C1=N\O (configuration not stated)
condition met

Hi there! Is normalized growth for O=C(Cn1ccnc1[N+](=O)[O-])NCCO below 1, do you know?
condition not met

Is normalized growth of C=C1CCC(OC(C)=O)/C(C)=C/C[C@@H]2[C@@H]1CC2(C)C (some centres not stated) strictly below 1?
condition not met
